- Subject of test: UniProtKB P11229
- Procedure text: mAChR M1 cell-based functional assay (calcium mobilization, antagonist mode)
- Settings: concentration of antagonist decreasing calcium flux by 50%; EC80 acetylcholine response; CHO-K1 cells expressing mAChR M1; read-out: Potency (IC50)
For each of the compounds below, state its pIC50.
Give bare numbers, as −log10 of the molar value.

Completed entries (count: 3):
O=C(C1CN(S(=O)(=O)c2ccc(Cl)nc2)C1)N1CCN(c2ccncc2)CC1; 6.46
O=C(C1CN(S(=O)(=O)c2cccc3ncccc23)C1)N1CC2CN(c3ccncc3)CC2C1 (centres unmarked); 5.46
Cc1cc(N2CCN(C(=O)C3CN(S(=O)(=O)c4cccc5cnccc45)C3)CC2)ccn1; 6.92

Next:
Asked: Entry O=C(C1CN(S(=O)(=O)c2cccc3nonc23)C1)N1CCN(c2ccc(Br)cn2)CC1 : reported pIC50 = ?
Given back: 6.46

###

- Subject of test: mAChR M1 (UniProt P11229)
- Procedure text: mAChR M1 cell-based functional assay (calcium mobilization, antagonist mode)
- Settings: concentration of antagonist decreasing calcium flux by 50%; EC80 acetylcholine response; CHO-K1 cells expressing mAChR M1; read-out: Potency (IC50)
Recorded metric: IC50

Completed entries (count: 8):
COc1ccc(S(=O)(=O)N2CC(C(=O)N3CCN(c4ccncc4)CC3)C2)cn1; > 10 µM
Cn1ccnc1N1CCN(C(=O)C2CN(S(=O)(=O)c3cccc4nonc34)C2)CC1; > 10 µM
O=C(C1CN(S(=O)(=O)c2cccc3nonc23)C1)N1CCN(c2nccs2)CC1; > 10 µM
Cn1cc(S(=O)(=O)N2CC(C(=O)N3CCN(c4ccncc4)CC3)C2)cn1; 0.74 µM
O=C(C1CN(S(=O)(=O)c2ccccc2OC(F)(F)F)C1)N1CCN(c2ccncc2)CC1; 2.8 µM
O=C(C1CN(S(=O)(=O)c2cccc3nonc23)C1)N1CCCN(c2ccncc2)CC1; > 10 µM
O=C(C1CN(S(=O)(=O)c2cnc3ccccc3c2)C1)N1CCN(c2ccncc2)CC1; > 10 µM
O=C(C1CN(S(=O)(=O)c2ccc3[nH]c(=O)oc3c2)C1)N1CCN(c2ccncc2)CC1; > 10 µM

Next:
Asked: Entry O=C(C1CN(S(=O)(=O)c2cccc3nsnc23)C1)N1CCN(c2ccncc2)CC1 : reported IC50 = ?
Given back: 2.2 µM

###

- Subject of test: mAChR M1 (UniProt P11229)
- Procedure text: mAChR M1 cell-based functional assay (calcium mobilization, antagonist mode)
- Settings: activity remaining at top dose of 30 μM test compound, as percentage of the response to an approx. EC80 concentration of ACh
Field: label. Allowed values: yes (Remaining Activity (%) < 30%) or no (Remaining Activity (%) >= 30%).

# count of solved cases: 3
O=C(C1CN(S(=O)(=O)c2cccc(Cl)c2F)C1)N1CCN(c2ccncc2)CC1 [B34]; yes
O=C(C1CN(S(=O)(=O)c2cc(Cl)ccc2F)C1)N1CCN(c2ccncc2)CC1 [B35]; no
O=C(C1CN(S(=O)(=O)c2cccc3nonc23)C1)N1CCN(c2nccs2)CC1 [B33]; no

Asked: Strictly below 30% in Remaining Activity (%)? CC(C)(C)CS(=O)(=O)N1CC(C(=O)N2CC3CN(c4ccncc4)CC3C2)C1 (centres unmarked) [B55]
Given back: no

Asked: Again, but for O=C(C1CN(S(=O)(=O)c2cccc3cnccc23)C1)N1CCc2cccnc2C1 [B51]
Given back: no

Asked: Again, but for COc1ccc(S(=O)(=O)N2CC(C(=O)N3CCN(c4ccncc4)CC3)C2)cn1 [B38]
Given back: yes

Asked: Again, but for O=C(C1CN(S(=O)(=O)c2cccc3nonc23)C1)N1CCCN(c2ccncc2)CC1 [B32]
Given back: no

Asked: Again, but for CC(C)(C)CS(=O)(=O)N1CC(C(=O)N2CCN(c3ccncc3)CC2)C1 [B43]
Given back: no

Asked: Again, but for O=C(C1CN(S(=O)(=O)c2ccc3cn[nH]c3c2)C1)N1CCN(c2ccncc2)CC1 [B37]
Given back: yes

Asked: Again, but for O=C(C1CN(S(=O)(=O)c2ccc(Cl)cn2)C1)N1CCN(c2ccncc2)CC1 [B42]
Given back: no

Asked: Again, but for O=C(C1CN(S(=O)(=O)c2cnc3ccccc3c2)C1)N1CCN(c2ccncc2)CC1 [B39]
Given back: no

Asked: Again, but for Cn1ccc2cc(S(=O)(=O)N3CC(C(=O)N4CCN(c5ccncc5)CC4)C3)ccc21 [B50]
Given back: no
